pKi: −log10 of the molar value. Structures can show the parent of a compound that is named as a salt.
Measurement record for human cloned 5-HT6 receptors (Homo sapiens); quantity recorded: pKi.
PARAMETER: pKi

>>> meas_value("O=S(=O)(c1ccccc1)n1ccc2c(OCCNC3CCOCC3)cccc21 [Example 6, Hydrochloride]")
8.22
>>> meas_value("NCCOc1cccc2c1ccn2S(=O)(=O)c1ccccc1 [Example 5, Hydrochloride]")
8.70
>>> meas_value("O=S(=O)(c1ccccc1)n1ccc2c(OCCN3CCCCC3)cccc21 [Example 10, Hydrochloride]")
8.15
>>> meas_value("CN(C)CCOc1cccc2c1ccn2S(=O)(=O)c1ccccc1 [Example 8, Hydrochloride]")
8.40
>>> meas_value("O=S(=O)(c1ccccc1)n1ncc2c(OCCN3CCCCC3)cccc21 [Example 13, Hydrochloride]")
8.70
>>> meas_value("NCCOc1cccc2c1cnn2S(=O)(=O)c1ccccc1 [Example 14, Hydrochloride]")
9.00
>>> meas_value("O=S(=O)(c1ccccc1)n1ncc2c(OCCNC3CCSCC3)cccc21 [Example 18, Hydrochloride]")
7.96

Measured values drawn from patent US6919354B2 for this set.
